- assay-target: UniProt P23458
- test-description: Analysis of JAK1 activity inhibition ability (ADP-Glo Kinase Assay)
- Assay type: biochemical
- protocol-conditions: JAK1 enzyme, ADP-Glo luminescence, ATP 250 uM, IRS-itide substrate, 30° C. 40 minutes; read-out: IC50
pIC50: −log10 of the molar value.
Items are presented alongside their recorded pIC50.
reported-property: pIC50

[[record]]
compound = "O=C(Nc1cc(-c2ccc(CC(=O)N3CCSCC3)cc2)c2cc[nH]c2n1)C1CC1"
assay_target = "UniProt P23458"
reported_property = "pIC50"
measured_result = "6.70 to 7.70"

[[record]]
compound = "CC(C)N1CCN(C(=O)Cc2ccc(-c3cc(NC(=O)C4CC4)nc4[nH]ccc34)cc2)CC1"
assay_target = "UniProt P23458"
reported_property = "pIC50"
measured_result = "< 6.70"

[[record]]
compound = "CC1CN(S(=O)(=O)Nc2ccc(-c3cc(NC(=O)C4CC4)nc4[nH]ccc34)cc2)CC(C)O1 (centres unmarked)"
assay_target = "UniProt P23458"
reported_property = "pIC50"
measured_result = "6.70 to 7.70"

[[record]]
compound = "N#CCCn1cc(-c2cc(NC(=O)C3CC3)nc3[nH]ccc23)cn1"
assay_target = "UniProt P23458"
reported_property = "pIC50"
measured_result = "> 7.70"

[[record]]
compound = "CCS(=O)(=O)Nc1ccc(-c2cc(NC(=O)C3CC3)nc3[nH]ccc23)c(C#N)c1"
assay_target = "UniProt P23458"
reported_property = "pIC50"
measured_result = "6.70 to 7.70"

[[record]]
compound = "O=C(Nc1cc(C2=CCN(C(=O)C3CC3)CC2)c2cc[nH]c2n1)C1CC1"
assay_target = "UniProt P23458"
reported_property = "pIC50"
measured_result = "6.70 to 7.70"

[[record]]
compound = "O=C(Nc1cc(-c2ccc(NS(=O)(=O)C3CCS(=O)(=O)C3)cc2)c2cc[nH]c2n1)C1CC1 (centres unmarked)"
assay_target = "UniProt P23458"
reported_property = "pIC50"
measured_result = "> 7.70"

[[record]]
compound = "N#Cc1ccc(S(=O)(=O)NC2CC=C(c3cc(NC(=O)C4CC4)nc4[nH]ccc34)CC2)cc1 (centres unmarked)"
assay_target = "UniProt P23458"
reported_property = "pIC50"
measured_result = "> 7.70"


---

- assay-target: JAK1 (Homo sapiens (Human))
- test-description: Analysis of JAK1 activity inhibition ability (ADP-Glo Kinase Assay)
- Format: biochemical
- protocol-conditions: JAK1 enzyme, ADP-Glo luminescence, ATP 250 uM, IRS-itide substrate, 30° C. 40 minutes; read-out: IC50
Items are presented alongside their recorded IC50.
reported-property: IC50

[[record]]
compound = "N#CCC1(CS(=O)(=O)N2CC=C(c3cc(NC(=O)C4CC4)nc4[nH]ccc34)CC2)CC1 [Example 171]"
measured_result = "20 to 200 nM"

[[record]]
compound = "N#CC1CCN(C(=O)Cc2ccc(-c3cc(NC(=O)C4CC4)nc4[nH]ccc34)cc2)CC1 [Example 548]"
measured_result = "20 to 200 nM"

[[record]]
compound = "CC(C)(C)OC(=O)N1CCC=C(c2cc(NC(=O)C3CC3)nc3[nH]ccc23)C1 [Example 460]"
measured_result = "> 200 nM"

[[record]]
compound = "C[C@H]1CC(Nc2ccc(-c3cc(NC(=O)C4CC4)nc4[nH]ccc34)cc2)CCN1C(=O)c1cc(F)cc(F)c1 (stereo partly shown) [Example 502]"
measured_result = "> 200 nM"


---

- assay-target: UniProt P23458
- test-description: Analysis of JAK1 activity inhibition ability (ADP-Glo Kinase Assay)
- Format: biochemical
- protocol-conditions: JAK1 enzyme, ADP-Glo luminescence, ATP 250 uM, IRS-itide substrate, 30° C. 40 minutes; read-out: IC50
Items are presented alongside their recorded IC50.
reported-property: IC50

[[record]]
molecule = "O=C(Nc1cc(-c2ccc(CC(=O)N3CCCC3)cc2)c2cc[nH]c2n1)C1CC1"
reported_property = "IC50"
measured_result = "20 to 200 nM"

[[record]]
molecule = "CCc1cc(NS(=O)(=O)C2CCCCC2)ccc1-c1cc(NC(=O)C2CC2)nc2[nH]ccc12"
reported_property = "IC50"
measured_result = "20 to 200 nM"

[[record]]
molecule = "O=C(Nc1cc(-c2ccc(NS(=O)(=O)c3ccc(F)c(F)c3)cc2)c2cc[nH]c2n1)C1CC1"
reported_property = "IC50"
measured_result = "< 20 nM"

[[record]]
molecule = "CC1CN(C(=O)c2ccnc(N)c2)CC=C1c1cc(NC(=O)C2CC2)nc2[nH]ccc12 (stereo not shown)"
reported_property = "IC50"
measured_result = "> 200 nM"

[[record]]
molecule = "O=C(Nc1cc(C2CCN(C(=O)NCC(F)(F)F)CC2)c2cc[nH]c2n1)C1CC1"
reported_property = "IC50"
measured_result = "> 200 nM"

[[record]]
molecule = "CN(c1ccc(-c2nc(NC(=O)C3CC3)nc3[nH]ccc23)cc1)S(=O)(=O)c1ccc(F)c(F)c1"
reported_property = "IC50"
measured_result = "> 200 nM"

[[record]]
molecule = "N#Cc1cccc(C(=O)N2C3CCC2CN(c2cc(NC(=O)C4CC4)nc4[nH]ccc24)C3)c1"
reported_property = "IC50"
measured_result = "< 20 nM"

[[record]]
molecule = "CCS(=O)(=O)Nc1ccc(-c2cc(NC(=O)C3CC3C)nc3[nH]ccc23)cc1 (stereo not shown)"
reported_property = "IC50"
measured_result = "< 20 nM"

[[record]]
molecule = "O=C(Nc1cc(-c2ccc(NS(=O)(=O)CF)cc2)c2cc[nH]c2n1)C1CC1"
reported_property = "IC50"
measured_result = "20 to 200 nM"

[[record]]
molecule = "O=C(Nc1cc(-c2ccc(NS(=O)(=O)N3CCCC3)cc2)c2cc[nH]c2n1)C1CC1"
reported_property = "IC50"
measured_result = "< 20 nM"

[[record]]
molecule = "N#CCC1(N2CC=C(c3cc(NC(=O)C4CC4)nc4[nH]ccc34)CC2)CN(C2CCNCC2)C1"
reported_property = "IC50"
measured_result = "> 200 nM"

[[record]]
molecule = "O=C(Nc1cc(-c2ccc(NC3CCN(C(=O)c4cc(F)cc(F)c4)CC3)cc2)c2cc[nH]c2n1)C1CC1"
reported_property = "IC50"
measured_result = "> 200 nM"

[[record]]
molecule = "CCCS(=O)(=O)Nc1ccc(-c2cc(NC(=O)C3CC3)nc3[nH]ccc23)c(C)c1"
reported_property = "IC50"
measured_result = "20 to 200 nM"

[[record]]
molecule = "CC1CN(C(=O)c2cccc(Br)n2)CC=C1c1cc(NC(=O)C2CC2)nc2[nH]ccc12 (stereo not shown)"
reported_property = "IC50"
measured_result = "20 to 200 nM"

[[record]]
molecule = "N#CCCNC(=O)Cc1ccc(-c2cc(NC(=O)C3CC3)nc3[nH]ccc23)cc1"
reported_property = "IC50"
measured_result = "20 to 200 nM"

[[record]]
molecule = "CN(C)C(=O)Cc1ccc(-c2cc(NC(=O)C3CC3)nc3[nH]ccc23)cc1"
reported_property = "IC50"
measured_result = "20 to 200 nM"


---

Items are presented alongside their recorded pIC50.
- assay-target: JAK1 (Homo sapiens (Human), UniProt P23458)
- Sequence (P23458 whole entry): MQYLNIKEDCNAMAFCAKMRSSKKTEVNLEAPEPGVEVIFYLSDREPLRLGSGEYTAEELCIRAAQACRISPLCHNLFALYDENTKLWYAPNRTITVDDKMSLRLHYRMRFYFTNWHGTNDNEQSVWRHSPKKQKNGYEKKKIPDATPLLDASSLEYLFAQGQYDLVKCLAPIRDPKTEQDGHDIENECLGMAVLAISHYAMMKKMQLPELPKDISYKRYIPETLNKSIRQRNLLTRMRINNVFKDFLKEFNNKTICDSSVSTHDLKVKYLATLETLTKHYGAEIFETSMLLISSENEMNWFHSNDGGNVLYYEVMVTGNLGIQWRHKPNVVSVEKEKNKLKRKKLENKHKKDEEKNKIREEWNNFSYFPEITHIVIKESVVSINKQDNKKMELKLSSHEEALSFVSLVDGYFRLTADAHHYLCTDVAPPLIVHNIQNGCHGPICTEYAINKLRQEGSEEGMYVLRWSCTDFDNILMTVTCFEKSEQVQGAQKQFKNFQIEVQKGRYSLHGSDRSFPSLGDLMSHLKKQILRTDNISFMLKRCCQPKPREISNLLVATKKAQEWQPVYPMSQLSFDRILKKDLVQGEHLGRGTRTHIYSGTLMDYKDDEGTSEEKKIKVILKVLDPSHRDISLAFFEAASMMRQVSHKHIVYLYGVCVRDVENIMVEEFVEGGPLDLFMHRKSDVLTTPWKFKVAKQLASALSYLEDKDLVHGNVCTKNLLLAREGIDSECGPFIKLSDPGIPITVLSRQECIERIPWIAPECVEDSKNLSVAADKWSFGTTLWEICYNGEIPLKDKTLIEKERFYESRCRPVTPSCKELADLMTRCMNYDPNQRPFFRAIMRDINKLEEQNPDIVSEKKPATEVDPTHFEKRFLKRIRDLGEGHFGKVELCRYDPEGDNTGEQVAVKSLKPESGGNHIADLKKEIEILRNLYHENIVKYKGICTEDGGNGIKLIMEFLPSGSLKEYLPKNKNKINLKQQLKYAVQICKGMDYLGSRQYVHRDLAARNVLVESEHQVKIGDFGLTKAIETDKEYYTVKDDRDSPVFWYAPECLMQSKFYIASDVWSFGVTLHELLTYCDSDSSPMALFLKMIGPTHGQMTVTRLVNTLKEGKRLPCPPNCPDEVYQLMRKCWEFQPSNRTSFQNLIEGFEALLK
- test-description: Analysis of JAK1 activity inhibition ability (ADP-Glo Kinase Assay)
- Assay type: biochemical
- protocol-conditions: JAK1 enzyme, ADP-Glo luminescence, ATP 250 uM, IRS-itide substrate, 30° C. 40 minutes; read-out: IC50
pIC50: −log10 of the molar value.
reported-property: pIC50

[[record]]
compound = "CS(=O)(=O)Nc1ccc(-c2nc(NC(=O)C3CC3)nc3[nH]ccc23)cc1F"
assay_target = "JAK1 (Homo sapiens (Human), UniProt P23458)"
reported_property = "pIC50"
measured_result = "< 6.70"

[[record]]
compound = "CN(C)S(=O)(=O)N1CCN(c2cc(NC(=O)C3CC3)nc3[nH]ccc23)CC1"
assay_target = "JAK1 (Homo sapiens (Human), UniProt P23458)"
reported_property = "pIC50"
measured_result = "< 6.70"

[[record]]
compound = "CC1CN(C(=O)c2cnccn2)CC=C1c1cc(NC(=O)C2CC2)nc2[nH]ccc12 (centres unmarked)"
assay_target = "JAK1 (Homo sapiens (Human), UniProt P23458)"
reported_property = "pIC50"
measured_result = "6.70 to 7.70"

[[record]]
compound = "CC1CN(C(=O)c2ccnc(C#N)c2)CC=C1c1cc(NC(=O)C2CC2)nc2[nH]ccc12 (centres unmarked)"
assay_target = "JAK1 (Homo sapiens (Human), UniProt P23458)"
reported_property = "pIC50"
measured_result = "6.70 to 7.70"

[[record]]
compound = "O=C(Nc1cc(-c2ccc(CC(=O)N3CCC(F)(F)CC3)cc2)c2cc[nH]c2n1)C1CC1"
assay_target = "JAK1 (Homo sapiens (Human), UniProt P23458)"
reported_property = "pIC50"
measured_result = "6.70 to 7.70"

[[record]]
compound = "O=C(Nc1cc(-c2cnn(Cc3ccccc3)c2)c2cc[nH]c2n1)C1CC1"
assay_target = "JAK1 (Homo sapiens (Human), UniProt P23458)"
reported_property = "pIC50"
measured_result = "6.70 to 7.70"

[[record]]
compound = "CC(C)CS(=O)(=O)Nc1ccc(-c2cc(NC(=O)C3CC3)nc3[nH]ccc23)cc1F"
assay_target = "JAK1 (Homo sapiens (Human), UniProt P23458)"
reported_property = "pIC50"
measured_result = "> 7.70"

[[record]]
compound = "CC1CN(C(=O)c2ccc[nH]2)CC=C1c1cc(NC(=O)C2CC2)nc2[nH]ccc12 (centres unmarked)"
assay_target = "JAK1 (Homo sapiens (Human), UniProt P23458)"
reported_property = "pIC50"
measured_result = "6.70 to 7.70"

